Value source: paper PMC7006686

Molecular target: hCA IX (Homo sapiens)
Construct: gene CA9; recombinant, obtained in-house
Assay: stopped-flow CO2 hydrase assay
Format: biochemical
Conditions: read-out: hCA IX
Excerpt: stopped-flow CO2 hydrase assay on hCA IX
Reported Endpoint: Ki (µM)

{"Compound": "O=C(O)CN1C(=O)SC(=Cc2ccccc2Cl)C1=O [3d]", "Reported Endpoint": "Ki", "Readout Units": "µM", "Data Value": 24.1}
{"Compound": "O=C(O)CN1C(=O)SC(=Cc2ccccc2)C1=O [3a]", "Reported Endpoint": "Ki", "Readout Units": "µM", "Data Value": 22.2}
{"Compound": "O=C(O)CN1C(=O)SC(=Cc2ccc(Cl)cc2)C1=O [3c]", "Reported Endpoint": "Ki", "Readout Units": "µM", "Data Value": 3.1}

(A) COc1ccc(C=C2SC(=O)N(CC(=O)O)C2=O)cc1 [3f]
(B) O=C(O)CN1C(=O)SC(=Cc2ccc(Br)cc2)C1=O [3e]
Hi team, can someone confirm which has the larger Ki: A or B ? Thanks. Please identify the chosen entry by its label.
B
(B: 33.3 µM, A: 3.2 µM)

====

This listing pairs compounds with measured Ki.
target: hCA II (Homo sapiens, UniProt P00918); construct: recombinant, obtained in-house; cytosolic isoform; test: stopped-flow CO2 hydrase assay

Known Ki results, listed for orientation:
{"Chemical Structure": "O=C(O)CN1C(=O)SC(=Cc2ccc(Br)cc2)C1=O", "Data Value": "> 100 µM"}
{"Chemical Structure": "Cc1ccc(C=C2SC(=O)N(CC(=O)O)C2=O)cc1", "Data Value": "> 100 µM"}
{"Chemical Structure": "O=C(O)CN1C(=O)SC(=Cc2ccccc2Cl)C1=O", "Data Value": "> 100 µM"}
{"Chemical Structure": "COc1ccc(C=C2SC(=O)N(CC(=O)O)C2=O)cc1", "Data Value": "> 100 µM"}

Bench note: what Ki did "COc1cccc(C=C2SC(=O)N(CC(=O)O)C2=O)c1" show?
> 100 µM

Another compound to check: "O=C(O)CN1C(=O)SC(=Cc2ccccc2)C1=O"
> 100 µM

Another compound to check: "O=C(O)CN1C(=O)SC(=Cc2ccc(Cl)cc2)C1=O"
> 100 µM
